target: acid ceramidase (Homo sapiens, UniProt Q13510); construct: Cell lysates overexpressing acid ceramidase were used as the enzyme source; expressed in transfected cells; assay: Acid ceramidase inhibition, biochemical fluorescent assay with cell lysates overexpressing acid ceramidase, substrate Rbm14-12; details: substrate Rbm14-12 6.3 μM, pH 4.5
Sequence (Q13510 22-395): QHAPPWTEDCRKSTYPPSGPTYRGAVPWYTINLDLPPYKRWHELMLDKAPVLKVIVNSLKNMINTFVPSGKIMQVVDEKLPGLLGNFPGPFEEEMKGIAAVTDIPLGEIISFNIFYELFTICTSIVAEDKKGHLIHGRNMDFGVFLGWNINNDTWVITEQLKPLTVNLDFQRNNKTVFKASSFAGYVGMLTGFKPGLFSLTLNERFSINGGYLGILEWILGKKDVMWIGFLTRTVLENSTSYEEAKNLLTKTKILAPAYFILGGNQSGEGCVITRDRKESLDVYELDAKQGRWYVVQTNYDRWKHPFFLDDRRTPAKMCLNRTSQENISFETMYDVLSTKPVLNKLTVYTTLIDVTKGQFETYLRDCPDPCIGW
Measured IC50 by item

molecule: CC(C)CCNC(=O)n1cnc2c(N3C[C@@H](C)O[C@@H](C)C3)cccc21 [Example 167]
target: acid ceramidase (Homo sapiens, UniProt Q13510)
IC50: 200 to 1000 nM

molecule: CCN1CCC(c2cccc3c2ncn3C(=O)NCCCc2ccccc2)C1 (stereo not drawn) [Example 261]
target: acid ceramidase (Homo sapiens, UniProt Q13510)
IC50: < 200 nM

molecule: CC(C)CCNC(=O)n1cnc2c(N3C[C@H]4C[C@@H]3CO4)cccc21 [Example 166]
target: acid ceramidase (Homo sapiens, UniProt Q13510)
IC50: 200 to 1000 nM

molecule: CC1(N)CCN(c2cccc3c2ncn3C(=O)NCCCc2ccccc2)CC1 [Example 263]
target: acid ceramidase (Homo sapiens, UniProt Q13510)
IC50: < 200 nM

molecule: CC(C)CCNC(=O)n1cnc2c(N3CCN4CCCCC4C3)cccc21 (stereo not drawn) [Example 198]
target: acid ceramidase (Homo sapiens, UniProt Q13510)
IC50: 200 to 1000 nM

molecule: CC(C)CCNC(=O)n1cnc2c(N3CCN(C4CC4)C(=O)C3)cccc21 [Example 206]
target: acid ceramidase (Homo sapiens, UniProt Q13510)
IC50: 200 to 1000 nM

molecule: CC(C)C#CCNC(=O)n1cnc2c(N3CCN(C4CN(C)C4)CC3)cccc21 [Example 299]
target: acid ceramidase (Homo sapiens, UniProt Q13510)
IC50: < 200 nM

molecule: COc1nc2ccc(N3CCOCC3)cc2n1C(=O)NCCC1CC1C(F)(F)F (stereo not drawn) [Example 230a]
target: acid ceramidase (Homo sapiens, UniProt Q13510)
IC50: 200 to 1000 nM

molecule: CC(=O)N1CCN(c2cccc3c2ncn3C(=O)NCCCCC(C)C)CC1 [Example 223]
target: acid ceramidase (Homo sapiens, UniProt Q13510)
IC50: < 200 nM

molecule: CN1CC2CN(c3cccc4c3ncn4C(=O)NCCCc3ccccc3)CC2C1 (stereo not drawn) [Example 266]
target: acid ceramidase (Homo sapiens, UniProt Q13510)
IC50: < 200 nM

# input Given COc1nc2cc(C3CCN(C)CC3)ccc2n1C(=O)NCCCc1ccccc1 [Example 195a] , state its recorded IC50.
# output > 1000 nM

# input Likewise for CC(C)C#CCNC(=O)n1cnc2c(N3CCN4CCCC4C3)cccc21 (stereo not drawn) [Example 302] ?
# output < 200 nM

# input Same question, COc1nc2ccc(N3CCN(C(C)=O)CC3)cc2n1C(=O)NCCCc1ccccc1 [Example 236b] this time
# output < 200 nM

# input Again, but for COc1nc2ccc(N3[C@@H]4CC[C@H]3COC4)cc2n1C(=O)NCCCc1ccccc1 [Example 237b]
# output < 200 nM

# input Request: CN1CC2CCC(C1)N2c1cccc2c1ncn2C(=O)NCCCc1ccccc1 [Example 241]
# output < 200 nM

# input Same question, COc1nc2ccc(N3CCC4(CC3)COC4)cc2n1C(=O)NCCCc1ccccc1 [Example 238a] this time
# output < 200 nM

# input What do you have for CC(C)CCNC(=O)n1cnc2c(N3CC4CCC(C3)O4)cccc21 [Example 221] ?
# output 200 to 1000 nM

# input CN1CCN(c2cccc3c2ncn3C(=O)NCCCC2CC(F)(F)C2)CC1 [Example 260] , same question.
# output 200 to 1000 nM

The origin of these recorded values is patent US20220380319A1.
